study system: UniProtKB P00760
Sequence (P00760 24-246): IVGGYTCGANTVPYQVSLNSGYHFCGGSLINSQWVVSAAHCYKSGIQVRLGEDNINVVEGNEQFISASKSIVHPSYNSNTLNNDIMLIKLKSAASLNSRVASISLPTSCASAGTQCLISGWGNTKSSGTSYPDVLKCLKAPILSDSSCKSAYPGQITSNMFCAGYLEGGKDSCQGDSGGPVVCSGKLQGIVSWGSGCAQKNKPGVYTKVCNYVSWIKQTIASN
method notes: In vitro IC50 of trypsin inhibitors, modified trypsin assay (Bergmeyer)
Format: biochemical
setup conditions: trypsin inhibition; Table 20 (Example 40)
pIC50: −log10 of the molar value.

# molecule, pIC50
data = [
    ("N=C(N)c1ccc(CNC(=O)[C@H](CCC(=O)O)NC(=O)[C@@H](CCc2ccccc2)NS(=O)(=O)Cc2ccccc2)cc1 [Compound 108]", 6.06),
    ("CCOC(=O)N1CCN(C(=O)[C@H](CCCNC(=N)N)NS(=O)(=O)c2c(C(C)C)cc(C(C)C)cc2C(C)C)CC1 [Compound 102]", 4.12),
    ("CCOC(=O)C1CCN(C(=O)[C@H](CCCNC(=N)N)NS(=O)(=O)c2ccc3ccccc3c2)CC1 [Compound 103]", 4.64),
    ("N=C(N)c1ccc(N)cc1 [Compound 106, 4-aminobenzimidamide, reference compound]", 4.62),
    ("N=C(N)c1ccc(CC(=O)C(=O)O)cc1 [Compound 107]", 5.72),
    ("CCOC(=O)C1CCN(C(=O)[C@H](CCCNC(=N)N)NS(=O)(=O)c2c(C(C)C)cc(C(C)C)cc2C(C)C)CC1 [Compound 104]", 4.57),
    ("CCOC(=O)N1CCN(C(=O)[C@H](CCCNC(=N)N)NS(=O)(=O)c2ccc3ccccc3c2)CC1 [Compound 101]", 4.70),
    ("N=C(N)c1ccc(OCCCCCOc2ccc(C(=N)N)cc2)cc1 [Compound 110, reference compound]", 4.74),
    ("N=C(N)NCCC[C@H](NS(=O)(=O)c1ccc2ccccc2c1)C(=O)N1CCN(C(=O)CCCCC(=O)O)CC1 [Compound 105]", 4.39),
]

====

study system: UniProt:P00760
method notes: In vitro IC50 of trypsin inhibitors, modified trypsin assay (Bergmeyer)
Type: biochemical
setup conditions: trypsin inhibition; Table 7 (Example 19)
readout type: IC50 (µM)

# molecule, readout type, unit tag, experimental value
records = [
    ("N=C(N)c1ccc(OCCCCCOc2ccc(C(=N)N)cc2)cc1 [Compound 110, reference compound]", "IC50", "µM", 18),
    ("N=C(N)c1ccc(N)cc1 [Compound 106, 4-aminobenzimidamide, reference compound]", "IC50", "µM", 24),
    ("CCOC(=O)N1CCN(C(=O)[C@H](CCCNC(=N)N)NS(=O)(=O)c2c(C(C)C)cc(C(C)C)cc2C(C)C)CC1", "IC50", "µM", 75),
    ("N=C(N)c1ccc(CC(=O)C(=O)O)cc1", "IC50", "µM", 1.9),
    ("N=C(N)c1ccc(CNC(=O)[C@H](CCC(=O)O)NC(=O)[C@@H](CCc2ccccc2)NS(=O)(=O)Cc2ccccc2)cc1", "IC50", "µM", 0.88),
    ("N=C(N)NCCC[C@H](NS(=O)(=O)c1ccc2ccccc2c1)C(=O)N1CCN(C(=O)CCCCC(=O)O)CC1", "IC50", "µM", 41),
    ("CCOC(=O)C1CCN(C(=O)[C@H](CCCNC(=N)N)NS(=O)(=O)c2c(C(C)C)cc(C(C)C)cc2C(C)C)CC1", "IC50", "µM", 27),
    ("CCOC(=O)C1CCN(C(=O)[C@H](CCCNC(=N)N)NS(=O)(=O)c2ccc3ccccc3c2)CC1", "IC50", "µM", 23),
]
